I'd appreciate it if you could supply pIC50 values for the items below.
# EXPERIMENTAL SYSTEM: T7 DNA primase (primase domain of bacteriophage T7 gene 4 protein, residues 1-271) (Escherichia phage T7)
# Construct: T7 primase domain (residue: 1-271) was over-produced and purified
# Sequence (P03692 1-271): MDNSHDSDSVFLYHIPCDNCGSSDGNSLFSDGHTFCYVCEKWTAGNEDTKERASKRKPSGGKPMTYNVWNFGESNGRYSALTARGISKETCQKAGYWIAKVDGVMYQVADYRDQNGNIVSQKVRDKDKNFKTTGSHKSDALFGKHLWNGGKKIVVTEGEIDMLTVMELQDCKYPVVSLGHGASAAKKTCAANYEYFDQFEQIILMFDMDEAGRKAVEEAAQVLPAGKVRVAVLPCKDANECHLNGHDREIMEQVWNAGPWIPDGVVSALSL
# RUN DESCRIPTION: Oligoribonucleotide synthesis assay: template-directed diribonucleotide (pppAC) synthesis catalyzed by the T7 DNA primase domain (FIG. 5)
# ASSAY CONDITIONS: T7 gene 4 primase domain (residues 1-271, expressed in E. coli BL21(DE3)); DNA template with recognition site 5'-GTC-3' (5'-GGGTCA10-3'), ATP, [α-32P]-CTP, 10 mM MnCl2, pH 7.5; gel autoradiography of pppAC; four parameter logistic fit; parenthesised figure not explained
Answers are plain numbers, as −log10 of the molar value.

# example entries with known answers
[
  {
    "COMPOUND": "O=C1Cc2c([nH]c3ccc([N+](=O)[O-])cc23)-c2ccccc2N1 [Compound 12]",
    "REPORTED ENDPOINT": "pIC50",
    "EXPERIMENTAL VALUE": 3.96
  },
  {
    "COMPOUND": "O=C(O)c1cc2cccc([N+](=O)[O-])c2[nH]1 [Compound 17, 7-nitro-1H-indole-2-carboxylic acid]",
    "REPORTED ENDPOINT": "pIC50",
    "EXPERIMENTAL VALUE": 3.50
  }
]

From here, focus on the item given below.
The reported value for O=C(Nc1ccc2c(c1)OCO2)c1cc2cccc([N+](=O)[O-])c2[nH]1 [Compound 15] in terms of pIC50 is 4.25
